system.name: canine TRPM8 (Canis lupus familiaris)
Construct: expressed in transfected cells
protocol.details: In vitro canine TRPM8 functional assay (Ca2+-sensitive fluorescent dye, FLIPR or FDSS, icilin challenge)
Assay type: cell-based
condition.parameters: 0.2 μM compound; HEK293 cells stably expressing canine TRPM8; icilin challenge
metric: inhibition at 0.2 µM (%)

Use these answered entries as a reference point.
Cc1c(N(Cc2ccc(OC(F)(F)F)cc2)S(=O)(=O)CCN2CCC(c3ccccc3)CC2)sc2ccccc12
100
Cc1c(N(Cc2ccc(OC(F)(F)F)cc2)S(=O)(=O)CCN2CCN(C)CC2)sc2ccccc12
25
CCC(=O)N(CCS(=O)(=O)N(CCCCC(F)(F)F)c1sc2ccccc2c1C)CC(C)C
92

(P) O=S(=O)(CCN1CCCC(F)(F)C1)N(Cc1ccc(OC(F)(F)F)cc1)c1sc2ccccc2c1Br
(Q) Cc1c(N(Cc2ccc(OC(F)(F)F)cc2)S(=O)(=O)CCN(C)C)sc2ccccc12
Decide: P or Q , by lowest recorded inhibition at 0.2 µM. Give the label of your selection. Q
(Q: 65%, P: 102%)

---

system.name: canine TRPM8 (Canis lupus familiaris)
Construct: expressed in transfected cells
protocol.details: In vitro canine TRPM8 functional assay (Ca2+-sensitive fluorescent dye, FLIPR or FDSS, icilin challenge)
Format: cell-based
condition.parameters: 0.2 μM compound; HEK293 cells stably expressing canine TRPM8; icilin challenge
metric: inhibition at 0.2 µM (%)

CCN(CCS(=O)(=O)N(CCC1CC1)c1sc2ccccc2c1C)CC(C)C
103

(a) O=S(=O)(CCN1CCCCC1)N(Cc1ccc(OC(F)(F)F)cc1)c1sc2ccccc2c1Br
(b) O=S(=O)(CCN1CCC(c2ccccc2)CC1)N(Cc1ccc(OC(F)(F)F)cc1)c1ccc2ccccc2c1
(c) Cc1c(N(Cc2ccc(OC(F)(F)F)cc2)S(=O)(=O)CCN2CCNCC2)sc2ccccc12
Reorder: inhibition at 0.2 µM, max to min. List each label, following the requested order. a, b, c
(a: 101%, b: 58%, c: 23%)

---

system.name: canine TRPM8 (Canis lupus familiaris)
Construct: expressed in transfected cells
protocol.details: In vitro canine TRPM8 functional assay (Ca2+-sensitive fluorescent dye, FLIPR or FDSS, icilin challenge)
Format: cell-based
condition.parameters: HEK293 cells stably expressing canine TRPM8; icilin at approx. 80% maximal response; eight-point dose-response; single determinations unless otherwise noted; read-out: IC50
Procedure: The functional activity of compounds of the formula (I) was determined by measuring changes in intracellular calcium concentration using a Ca^2+-sensitive fluorescent dye. The changes in fluorescent signal were monitored by a fluorescence plate reader, either a FLIPR™ (Molecular Devices) or FDSS (Hamamatsu). […]
pIC50: −log10 of the molar value.
metric: pIC50

Cc1c(N(Cc2ccc(OC(F)(F)F)cc2)S(=O)(=O)CCN2CCC(O)CC2)sc2ccccc12
7.60
CCN(CC)CCS(=O)(=O)N(Cc1ccc(OC(F)(F)F)cc1)c1sc2ccccc2c1C
7.72
CN(CCS(=O)(=O)N(Cc1ccc(OC(F)(F)F)cc1)c1sc2ccccc2c1Br)Cc1ccccc1
7.55
Cc1c(N(Cc2ccc(OC(F)(F)F)cc2)S(=O)(=O)CCN2CCC(O)C2)sc2ccccc12 (stereo not drawn)
7.52

(a) Cc1c(N(Cc2ccc(OC(F)(F)F)cc2)S(=O)(=O)CCN2C[C@@H](C)O[C@@H](C)C2)sc2ccccc12
(b) Cc1c(N(Cc2ccc(OC(F)(F)F)cc2)S(=O)(=O)CCN2CCC(C(F)(F)F)CC2)sc2ccccc12
(c) Cc1c(N(Cc2ccc(OC(F)(F)F)cc2)S(=O)(=O)CCN2CCC[C@H]2C(F)(F)F)sc2ccccc12
(d) Cc1c(N(Cc2ccc(OC(F)(F)F)cc2)S(=O)(=O)CCN2CCOCC2)sc2ccccc12
(e) CCOC(=O)C1CCN(CCS(=O)(=O)N(CCCCC(F)(F)F)c2sc3ccccc3c2C)CC1
Reorder: pIC50, max to min. List each label, following the requested order. c, d, a, b, e
(c: 8.40, d: 7.92, a: 7.62, b: 7.35, e: 7.09)

(1) Cc1c(N(Cc2ccc(OC(F)(F)F)cc2)S(=O)(=O)CCN2CCCCC2)sc2ccccc12
(2) CCCN(CCS(=O)(=O)N(CCCCC(F)(F)F)c1sc2ccccc2c1C)CC(C)C
Decide: 1 or 2 , by lowest recorded pIC50. Give the label of your selection. 2
(2: 7.30, 1: 7.59)

---

system.name: canine TRPM8 (Canis lupus familiaris)
Construct: expressed in transfected cells
protocol.details: In vitro canine TRPM8 functional assay (Ca2+-sensitive fluorescent dye, FLIPR or FDSS, icilin challenge)
Type: cell-based
condition.parameters: IC50, determination of HCl salt; HEK293 cells stably expressing canine TRPM8; icilin challenge
metric: IC50 (nM)
All answers are understood in nM, so give the number only.

Using the record for `Cc1c(N(Cc2ccc(OC(F)(F)F)cc2)S(=O)(=O)CCN2CCC(c3ccccc3)CC2)sc2ccccc12` , state its measured IC50. 26

---

system.name: canine TRPM8 (Canis lupus familiaris)
Construct: expressed in transfected cells
protocol.details: In vitro canine TRPM8 functional assay (Ca2+-sensitive fluorescent dye, FLIPR or FDSS, icilin challenge)
Type: cell-based
condition.parameters: 0.2 μM compound; HEK293 cells stably expressing canine TRPM8; icilin challenge
metric: inhibition at 0.2 µM (%)

Use these answered entries as a reference point.
CCCN(CCS(=O)(=O)N(Cc1ccc(OC(F)(F)F)cc1)c1sc2ccccc2c1C)CC(C)C
100
Cc1c(N(Cc2ccc(OC(F)(F)F)cc2)S(=O)(=O)CCN2CCCC2C)sc2ccccc12 (centres unmarked)
100
O=S(=O)(CCN1CCCCC1)N(Cc1ccc(OC(F)(F)F)cc1)c1cc2ccccc2s1
92
Cc1c(N(Cc2ccc(OC(F)(F)F)cc2)S(=O)(=O)CCN2CCN(c3ccccc3)CC2)sc2ccccc12
96
Cc1c(N(Cc2ccc(F)cc2)S(=O)(=O)CCN2CCCC(F)(F)C2)sc2ccccc12
99

(P) O=S(=O)(CCN1CC(F)(F)C1)N(Cc1ccc(OC(F)(F)F)cc1)c1ccc2ccccc2c1
(Q) CNCCS(=O)(=O)N(Cc1ccc(OC(F)(F)F)cc1)c1sc2ccccc2c1C
Decide: P or Q , by lowest recorded inhibition at 0.2 µM. Give the label of your selection. Q

(P) CCCN(C)CCS(=O)(=O)N(Cc1ccc(OC(F)(F)F)cc1)c1sc2ccccc2c1C
(Q) Cc1c(N(CCCCC(F)(F)F)S(=O)(=O)CCN2CCC(C(=O)O)CC2)sc2ccccc12
Decide: P or Q , by lowest recorded inhibition at 0.2 µM. Give the label of your selection. Q

(a) CCOC(=O)C1CCN(CCS(=O)(=O)N(CCC2CC2)c2sc3ccccc3c2C)CC1
(b) Cc1c(N(CCC2CC2)S(=O)(=O)CCN2CCC(C(=O)O)CC2)sc2ccccc12
Lab notebook, comparison: a versus b , higher inhibition at 0.2 µM goes to which? Give the label of your selection. a
(a: 97%, b: 29%)

---

system.name: canine TRPM8 (Canis lupus familiaris, UniProt Q1A7N1)
Construct: expressed in transfected cells
Sequence (Q1A7N1 1-1104): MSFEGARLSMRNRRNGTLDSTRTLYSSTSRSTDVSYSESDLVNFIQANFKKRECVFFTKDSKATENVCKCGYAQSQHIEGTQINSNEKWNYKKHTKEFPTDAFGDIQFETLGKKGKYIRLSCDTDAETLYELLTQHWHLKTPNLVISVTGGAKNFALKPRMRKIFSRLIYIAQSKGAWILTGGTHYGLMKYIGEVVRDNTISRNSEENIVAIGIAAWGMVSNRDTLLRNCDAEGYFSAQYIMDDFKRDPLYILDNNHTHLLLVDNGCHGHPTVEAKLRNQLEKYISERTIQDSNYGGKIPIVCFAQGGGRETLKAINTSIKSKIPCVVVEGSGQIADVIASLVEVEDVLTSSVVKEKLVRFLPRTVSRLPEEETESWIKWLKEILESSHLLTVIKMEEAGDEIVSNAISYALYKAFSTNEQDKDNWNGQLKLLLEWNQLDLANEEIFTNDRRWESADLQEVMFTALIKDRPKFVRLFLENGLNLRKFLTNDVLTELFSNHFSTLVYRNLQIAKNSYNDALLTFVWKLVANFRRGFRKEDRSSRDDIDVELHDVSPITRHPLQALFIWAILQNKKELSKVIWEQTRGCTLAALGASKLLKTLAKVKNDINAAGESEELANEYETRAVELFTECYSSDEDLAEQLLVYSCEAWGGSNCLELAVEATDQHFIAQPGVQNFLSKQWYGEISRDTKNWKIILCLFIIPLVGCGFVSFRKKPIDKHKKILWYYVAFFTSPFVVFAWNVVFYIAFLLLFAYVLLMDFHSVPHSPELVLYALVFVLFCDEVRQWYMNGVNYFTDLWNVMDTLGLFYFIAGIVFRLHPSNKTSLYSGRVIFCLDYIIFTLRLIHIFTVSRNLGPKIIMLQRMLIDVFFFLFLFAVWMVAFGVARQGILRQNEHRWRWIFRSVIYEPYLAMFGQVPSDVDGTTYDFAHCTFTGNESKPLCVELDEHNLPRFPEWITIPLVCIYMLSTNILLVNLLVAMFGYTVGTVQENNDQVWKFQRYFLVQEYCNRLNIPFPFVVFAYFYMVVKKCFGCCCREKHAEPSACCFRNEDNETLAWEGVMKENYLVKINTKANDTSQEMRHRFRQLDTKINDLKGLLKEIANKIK
protocol.details: In vitro canine TRPM8 functional assay (Ca2+-sensitive fluorescent dye, FLIPR or FDSS, icilin challenge)
Assay type: cell-based
condition.parameters: 0.2 μM compound; HEK293 cells stably expressing canine TRPM8; icilin challenge
metric: inhibition at 0.2 µM (%)

Cc1c(N(CCC2CC2)S(=O)(=O)CCN(CC(C)C)CC(C)C)sc2ccccc12
100
CC(C)CN(CCS(=O)(=O)N(Cc1ccc(OC(F)(F)F)cc1)c1ccc2ccccc2c1)CC(C)C
72
CCCCN(CCCC)CCS(=O)(=O)N(Cc1ccc(OC(F)(F)F)cc1)c1sc2ccccc2c1Br
96
Cc1c(N(Cc2ccc(OC(F)(F)F)cc2)S(=O)(=O)CCN2CCC2)sc2ccccc12
80
Cc1c(N(Cc2ccc(OC(F)(F)F)cc2)S(=O)(=O)CCN(C)CC(C)C)sc2ccccc12
100
Cc1c(N(Cc2ccc(OC(F)(F)F)cc2)S(=O)(=O)CCN2CCCC2)sc2ccccc12
94
CCCCN(CCCC)CCS(=O)(=O)N(Cc1ccc(OC(F)(F)F)cc1)c1sc2ccccc2c1C
100
Cc1c(N(Cc2ccc(OC(F)(F)F)cc2)S(=O)(=O)CCN(C)C(C)C)sc2ccccc12
94

---

system.name: canine TRPM8 (Canis lupus familiaris, UniProt Q1A7N1)
Construct: expressed in transfected cells
protocol.details: In vitro canine TRPM8 functional assay (Ca2+-sensitive fluorescent dye, FLIPR or FDSS, icilin challenge)
Assay type: cell-based
condition.parameters: 0.2 μM compound; HEK293 cells stably expressing canine TRPM8; icilin challenge
metric: inhibition at 0.2 µM (%)

Use these answered entries as a reference point.
Cc1c(N(Cc2ccc(OC(F)(F)F)cc2)S(=O)(=O)CCN2CCc3ccccc3C2)sc2ccccc12 [Cpd 40]
100
O=S(=O)(CCN1CCSCC1)N(Cc1ccc(OC(F)(F)F)cc1)c1sc2ccccc2c1Br [Cpd 66]
100
CCN(CC)CCS(=O)(=O)N(Cc1ccc(OC(F)(F)F)cc1)c1sc2ccccc2c1C [Cpd 9]
101
O=S(=O)(CCN1CCSCC1)N(Cc1ccc(OC(F)(F)F)cc1)c1ccc2ccccc2c1 [Cpd 52]
87

(A) O=S(=O)(CCN1CCC(F)(F)C1)N(Cc1ccc(OC(F)(F)F)cc1)c1sc2ccccc2c1Br [Cpd 68]
(B) CCCCN(CCCC)CCS(=O)(=O)N(Cc1ccc(OC(F)(F)F)cc1)c1ccc2ccccc2c1 [Cpd 56]
Lab notebook, comparison: A versus B , higher inhibition at 0.2 µM goes to which? Give the label of your selection. A

Cited source: patent US8148422B2
